Test system: BJ
assay-notes: Cytostatic activity against human BJ cells after 72 hrs by MTT assay
Assay type: ADME, cell-based
// reported IC50 for each item listed

Here are 2 molecules together with their reported answers.
Which IC50 value is on record for Nc1nc(N)c2c(-c3cc4ccccc4o3)cn([C@@H]3O[C@H](CO)[C@@H](O)[C@H]3O)c2n1 ?
> 100 µM

Query: IC50; subject: Cc1ncnc2c1c(Br)cn2[C@@H]1O[C@H](CO)[C@@H](O)[C@H]1O
> 100 µM

Switching to the query record.
Request the reported IC50 associated with CN(C)c1ncnc2c1c(-c1ccccc1)cn2[C@@H]1O[C@H](CO)[C@@H](O)[C@H]1O
> 100 µM

---

System: HCT-116
assay-notes: Cytostatic activity against p53-deficient human HCT116 cells after 72 hrs by MTT assay
Assay type: functional, cell-based
settings: HCT-116, 72 h
measured-metric: IC50

What value of IC50 has been recorded for this entry: COc1nc(N)nc2c1c(-c1cccs1)cn2[C@@H]1O[C@H](CO)[C@@H](O)[C@H]1O
> 20 µM

Returns the measured IC50 for the input molecule. Input: Cc1nc(N)c2c(-c3ccco3)cn([C@@H]3O[C@H](CO)[C@@H](O)[C@H]3O)c2n1
> 20 µM

Next molecule, IC50 to be filled in.
# input molecule: Cc1nc(N)c2c(-c3ccsc3)cn([C@@H]3O[C@H](CO)[C@@H](O)[C@H]3O)c2n1 ; wanted: its IC50
> 20 µM

---

Test system: Hepatitis C virus
assay-notes: Antiviral activity against Hepatitis C virus subtype 1b infected in human HuH7 cells
Assay type: functional, organism-based, Hepacivirus hominis
settings: genotype 1b, Huh-7
pEC50: −log10 of the molar value.
Below is a list of entries, each paired with its recorded pEC50 value.

Look over these answered cases.
Look at this compound and give its reported pEC50. Cc1nc(N)c2c(-c3cccs3)cn([C@@H]3O[C@H](CO)[C@@H](O)[C@H]3O)c2n1
< 4.36

Entry COc1ncnc2c1c(I)cn2[C@@H]1O[C@H](CO)[C@@H](O)[C@H]1O : reported pEC50 = ?
< 4.36

The record that follows has no pEC50 shown yet.
For the compound shown here, Nc1nc(N)c2c(-c3ccccc3)cn([C@@H]3O[C@H](CO)[C@@H](O)[C@H]3O)c2n1 , give the reported pEC50.
< 4.36

---

The entries below come with measured pIC50 values attached.
Test system: HCT-116
assay-notes: Cytostatic activity against p53-deficient human HCT116 cells after 72 hrs by MTT assay
Type: functional, cell-based
settings: HCT-116, 72 h
pIC50: −log10 of the molar value.

Name the reported pIC50 value associated with the compound CNc1ncnc2c1c(-c1cc3ccccc3o1)cn2[C@@H]1O[C@H](CO)[C@@H](O)[C@H]1O
< 4.70

Entry C#Cc1cn([C@@H]2O[C@H](CO)[C@@H](O)[C@H]2O)c2ncnc(N(C)C)c12 has what pIC50?
6.54

Which measured pIC50 value corresponds to CNc1ncnc2c1c(-c1ccoc1)cn2[C@@H]1O[C@H](CO)[C@@H](O)[C@H]1O ?
< 4.70

Need pIC50, item C#Cc1cn([C@@H]2O[C@H](CO)[C@@H](O)[C@H]2O)c2ncnc(OC)c12
5.29

What measured pIC50 goes with O=c1[nH]cnc2c1c(-c1ccccc1)cn2[C@@H]1O[C@H](CO)[C@@H](O)[C@H]1O ?
< 4.70

Any idea what its pIC50 is? The compound is Cc1ncnc2c1ccn2[C@@H]1O[C@H](CO)[C@@H](O)[C@H]1O
7.22

Next:
Item COc1nc(N)nc2c1c(-c1ccsc1)cn2[C@@H]1O[C@H](CO)[C@@H](O)[C@H]1O has what recorded pIC50?
< 4.70

Given the entry COc1nc(N)nc2c1c(-c1ccco1)cn2[C@@H]1O[C@H](CO)[C@@H](O)[C@H]1O , report its measured pIC50.
< 4.70

Form field: reported pIC50 of CN(C)c1ncnc2c1c(I)cn2[C@@H]1O[C@H](CO)[C@@H](O)[C@H]1O
6.92

Data request, read-out pIC50, for COc1ncnc2c1c(-c1ccco1)cn2[C@@H]1O[C@H](CO)[C@@H](O)[C@H]1O
7.40

What does the record list as pIC50 for Cc1nc(N)c2c(-c3cccs3)cn([C@@H]3O[C@H](CO)[C@@H](O)[C@H]3O)c2n1 ?
< 4.70

Which pIC50 value is on record for O=c1[nH]cnc2c1c(-c1cc3ccccc3o1)cn2[C@@H]1O[C@H](CO)[C@@H](O)[C@H]1O ?
< 4.70

Can you look up the measured pIC50 of Cc1ncnc2c1c(I)cn2[C@@H]1O[C@H](CO)[C@@H](O)[C@H]1O for me?
5.12

Quick one: pIC50 for Cc1ncnc2c1c(-c1cccs1)cn2[C@@H]1O[C@H](CO)[C@@H](O)[C@H]1O ?
< 4.70

GET /values?readout=pIC50&item= Cc1ncnc2c1c(-c1ccco1)cn2[C@@H]1O[C@H](CO)[C@@H](O)[C@H]1O
7.40

Fill blank: measured pIC50 of the compound CN(C)c1ncnc2c1c(-c1ccco1)cn2[C@@H]1O[C@H](CO)[C@@H](O)[C@H]1O is ____.
6.49

Find the recorded pIC50 belonging to Nc1nc(N)c2c(-c3ccccc3)cn([C@@H]3O[C@H](CO)[C@@H](O)[C@H]3O)c2n1 and report it.
< 4.70

Which measured pIC50 value corresponds to O=c1[nH]cnc2c1c(-c1ccco1)cn2[C@@H]1O[C@H](CO)[C@@H](O)[C@H]1O ?
< 4.70
